Procedure details: NCI Yeast Anticancer Drug Screen. Data for the mec2-1 strain (AID 157)
Experimental setup: S. cerevisiae mec2-1 strain, at 50.0 µM, hits give high values
Compounds without any hit were thinned out: in the full panel of roughly 79,000, 15% have a hit.
Assignment: determine reported growth inhibition for the given compounds.
Give bare numbers, in %.

- Compound: "CC(=O)N1C=Cc2c(c(C)c3c([nH]c4ccccc43)c2C)C1"
  growth inhibition (%): 87.3

Look at each compound and report its growth inhibition.
1. CCOC(=S)SSSC(=S)OCC
2. C1=CCN([B-](c2ccccc2)[C+]2CCCCC2)C=C1
3. O=C(O)CNC(c1ccccc1)(c1ccccc1)c1ccccc1
4. CC1=CC(=C(c2ccc(N)c(C)c2)c2ccc(N)c(C)c2)C=CC1=N
5. CCCCCCCCCC(=O)N(CCC)CCC
6. CC/C(=C(\c1ccccc1)c1ccc(OCC[N+](C)(C)C)cc1)c1ccccc1
7. COc1ccc(C2CC(C)(N3CCCC3)Oc3cc4c(cc32)OCO4)cc1 (centres undefined)
8. O=C(O)c1cc2c(cc1S(=O)(=O)O)C1C(C3C2C2(Cl)C(Cl)=C(Cl)C3(Cl)C2(Cl)Cl)C2(Cl)C(Cl)=C(Cl)C1(Cl)C2(Cl)Cl (centres undefined)

Response line:
[19.4, 98.7, 90, 89.6, 93.3, 93, 9.8, 95.4]

###

Procedure details: NCI Yeast Anticancer Drug Screen. Data for the rad50EPP+ strain (AID 151);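 note: 0% = growth of vehicle-treated control cultures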
Experimental setup: S. cerevisiae rad50 mutant strain, at 33.0 µM
About 79,000 compounds went through this panel and 15% of them were active in at least one assay; those are over-represented in the sample as a whole. The source made the active and inactive calls. Cut-off read from the data, not from the text of the source: active = growth inhibition above about 70%; inactive = the rest.
Write down the outcome that applies. Available outcomes: true = active, false = inactive

Solved entries (count: 2):
- Molecule: "NC(CS)C(=O)NCCNc1ccc(NCCNC(=O)C(N)CS)c2c1C(=O)c1c(O)ccc(O)c1C2=O (stereo unspecified)"
  Answer label: "true"
- Molecule: "CN(C)CCNC(=Cc1ccc2ccccc2[n+]1C)NCCN(C)C"
  Answer label: "false"

Prompt line: Any idea what this test logged for O=C1C=C(NCCc2cc(Br)c(O)c(Br)c2)C(=O)c2ncccc21 ?
Response line: true

Prompt line: Can you check c1cc(-c2sc(-c3ccncc3)c(-c3ccncc3)c2-c2ccncc2)ccn1 next?
Response line: false

Prompt line: Can you check CCCCCCCN(CCCCCCC)CC(=O)c1ccc2cc(Cl)c3ccccc3c2c1 next?
Response line: false

Prompt line: Can you check CCCCCCC=C(C(=O)OCC)C(=O)OCC next?
Response line: false

Prompt line: Can you check Nc1cccc(-c2cc[cH-]c2)c1.[Fe+2].c1cc[cH-]c1 next?
Response line: false

###

Procedure details: NCI Yeast Anticancer Drug Screen. Data for the wt2 strain (AID 169);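 note: 0% = growth of vehicle-treated yeast cultures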
Experimental setup: S. cerevisiae wt2 strain growth inhibition; at 1.2 µM; hits give high values
This is part of a sample that, as a whole, favours compounds with a hit. Of some 79,000 tested, about 15% had one in any assay.
Readout kind: growth inhibition (%)
Numbers only, in %.

Illustrative cases are given below, each with its answer.
- Compound: "C=C(C(=O)OC)N1C(=O)CC(C)C1=O (stereo unspecified)"
  growth inhibition [%]: -41
- Compound: "COC(=O)c1cnc(Cl)c([N+](=O)[O-])c1"
  growth inhibition [%]: 4
- Compound: "CC1=CC(=O)C=CC1=Nc1cc(Cl)c(O)c(Cl)c1"
  growth inhibition [%]: -31
- Compound: "CCCCCCCCN1COCC(COc2ccccc2C)OC1 (stereo unspecified)"
  growth inhibition [%]: -1
- Compound: "O=c1cccccc1[O-].O=c1cccccc1[O-].O=c1cccccc1[O-].[Eu+3]"
  growth inhibition [%]: 1
- Compound: "CN(CCOc1ccc(Cl)cc1)CCOc1ccc(Cl)cc1"
  growth inhibition [%]: 8

Look at each compound and report its growth inhibition.
1. CCCCCCNCCCNc1c2ccccc2nc2cccc([N+](=O)[O-])c12
2. COc1cc2c(cc1O)[C@H](C)C(c1ccccc1OC)O2 (stereo partly specified)
3. CC1(C2CC2)C(C#N)(C#N)C1(C#N)C#N
4. CO[C@@]1([C@@H](Cl)c2ccccc2)C(=O)N(C)/C(=C\c2ccccc2)C(=O)N1C
5. CCOP(=O)(OCC)/C(C#N)=C/c1ccc(-c2ccc(F)cc2F)o1

Response line:
1: -1; 2: -26; 3: -1; 4: 2; 5: -2

###

Procedure details: NCI Yeast Anticancer Drug Screen. Data for the rad52 strain (AID 147);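 note: 0% = growth of vehicle-treated control cultures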
Experimental setup: S. cerevisiae rad52 mutant growth inhibition; at 33.0 µM
Protocol: Growth inhibition of yeast strains with defined genetic alterations is measured as a screen for potential anti-cancer activity. Selected strains with alterations in DNA damage repair or cell cycle control were exposed to compounds and growth inhibition was measured relative to vehicle treated controls. The strain used in this assay is rad52
About 79,000 compounds went through this panel and 15% of them were active in at least one assay; those are over-represented in the sample as a whole. The source made the active and inactive calls. Cut-off read from the data, not from the text of the source: active = growth inhibition above about 70%; inactive = the rest.
Write down the outcome that applies. Available outcomes: yes (1) = active, no (0) = inactive

- Compound: "COC1=CCC23C(=O)C=CC(=O)C2(C1)C(=O)c1ccccc1C3=O (configuration not stated)"
  Answer label: "no (0)"
- Compound: "CCN1CCC(O)(c2ccc(Oc3ccc(C)cc3)cc2)C(C(=O)c2ccc(Oc3ccc(C)cc3)cc2)C1 (configuration not stated)"
  Answer label: "yes (1)"

Prompt line: Any idea what this test logged for O=S(=O)(NNc1ccccc1)c1ccccc1 ?
Response line: no (0)

Prompt line: Can you check CCC[CH2][Ge]([CH2]CCC)([CH2]CCC)[O]C(=O)C(O)c1ccccc1 (configuration not stated) next?
Response line: yes (1)

Prompt line: Can you check COc1ccc2nc(CCc3ccccc3)ccc2c1 next?
Response line: no (0)

Prompt line: Can you check O=C1C(/C=C/c2ccc(Cl)cc2)=NNC2N1N=C1NC(=O)C3(NN12)c1ccccc1-c1ccccc13 (configuration not stated) next?
Response line: no (0)

Prompt line: Can you check O=C(O)c1c2ccc(Cl)cc2nc2[nH]c(=O)[nH]c(=O)c12 next?
Response line: no (0)

###

Assignment: determine reported growth inhibition for the given compounds.
Procedure details: NCI Yeast Anticancer Drug Screen. Data for the rad50EPP+ strain (AID 151);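 note: 0% = growth of vehicle-treated control cultures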
Experimental setup: S. cerevisiae rad50 mutant strain, at 11.0 µM, hits give high values
About 79,000 compounds went through this panel and 15% of them were active in at least one assay; those are over-represented in the sample as a whole. The source made the active and inactive calls. No stated cut-off is given here; in the data, active means growth inhibition above about 70%; inactive means the rest. Residues, ends and D or L forms follow the SMILES beside them. *: point of attachment. Fmoc = O=C(OCC1c2ccccc2-c2ccccc21)*; Boc = CC(C)(C)OC(=O)*

- Compound: "O=C(/C=C/c1ccsc1)c1cccs1"
  growth inhibition: "21% (inactive)"
- Compound: "CC1(C)C(O)OC(O)C1(C)C (configuration not stated)"
  growth inhibition: "2% (inactive)"
- Compound: "Cc1ccc(Nc2n[nH]c(=S)s2)c(C)c1"
  growth inhibition: "23% (inactive)"
- Compound: "O=[N+]([O-])c1ccc(S(=O)(=O)Cc2ccccc2)c([N+](=O)[O-])c1"
  growth inhibition: "87% (active)"
- Compound: "O=C(CCSC1=NCCCN1)c1ccc(F)cc1"
  growth inhibition: "-54% (inactive)"
- Compound: "COC(=O)c1cnc(Cl)c([N+](=O)[O-])c1"
  growth inhibition: "93% (active)"

Look at each compound and report its growth inhibition.
1. O=[N+]([O-])c1ccc(/C=C\c2ccc3c(c2)OCO3)c([N+](=O)[O-])c1
2. CC1CCC(C2=CSC3CCCCC3N2)CC1 (configuration not stated)
3. Clc1nc(Cl)nc(Nc2cccc3ccccc23)n1

Response line:
1: 69% (inactive); 2: -8% (inactive); 3: 49% (inactive)

Look at each compound and report its growth inhibition.
1. O=[N+]([O-])[O][Sn]([O][Sn]([O][N+](=O)[O-])([c]1ccccc1)[c]1ccccc1)([c]1ccccc1)[c]1ccccc1
2. O=C1Nc2ccc(Br)cc2C1=Nc1cccnc1
3. CNCC(C)CNC
4. C/C(=N/NC(=S)Nc1ccccc1C)c1ccccn1

Response line:
1. 0% (inactive)
2. -8% (inactive)
3. -23% (inactive)
4. 13% (inactive)

Look at each compound and report its growth inhibition.
1. COc1ccc2nc3cccc([N+](=O)[O-])c3c(NCCCCCC(=O)O)c2c1
2. COc1ccc(C2CC(C)(N3CCCC3)Oc3cc4c(cc32)OCO4)cc1 (configuration not stated)
3. COc1cccc(/C=C2\S/C(=N/Nc3nc(-c4ccc([N+](=O)[O-])cc4)cs3)NC2=O)c1O
4. CC(C)(C)OC(=O)NCCCCC(NC(=O)C(Cc1c[nH]c2ccccc12)NC(=O)OCC1c2ccccc2-c2ccccc21)C(=O)O (configuration not stated) (Fmoc-Trp-Lys(Boc)-OH; configuration not given here)
5. O=C1/C(=C/c2ccc(Cl)c(Cl)c2)CNC/C1=C\c1ccc(Cl)c(Cl)c1
6. Fc1ccc(Nc2ccc3ccccc3c2)cc1
7. CC1CCN(CCC(=O)c2ccc([N+](=O)[O-])cc2)CC1

Response line:
["95% (active)", "3% (inactive)", "89% (active)", "2% (inactive)", "19% (inactive)", "-1% (inactive)", "3% (inactive)"]

Look at each compound and report its growth inhibition.
1. O=c1c2ccccc2nc(-c2cccc([N+](=O)[O-])c2)n1O
2. O=C1C=CC(=Nc2cccc3c2-c2ccccc2C3=O)O1

Response line:
["13% (inactive)", "61% (inactive)"]
